tested.on: MAO-B (Rattus norvegicus, UniProt P19643)
Sequence (P19643 1-520): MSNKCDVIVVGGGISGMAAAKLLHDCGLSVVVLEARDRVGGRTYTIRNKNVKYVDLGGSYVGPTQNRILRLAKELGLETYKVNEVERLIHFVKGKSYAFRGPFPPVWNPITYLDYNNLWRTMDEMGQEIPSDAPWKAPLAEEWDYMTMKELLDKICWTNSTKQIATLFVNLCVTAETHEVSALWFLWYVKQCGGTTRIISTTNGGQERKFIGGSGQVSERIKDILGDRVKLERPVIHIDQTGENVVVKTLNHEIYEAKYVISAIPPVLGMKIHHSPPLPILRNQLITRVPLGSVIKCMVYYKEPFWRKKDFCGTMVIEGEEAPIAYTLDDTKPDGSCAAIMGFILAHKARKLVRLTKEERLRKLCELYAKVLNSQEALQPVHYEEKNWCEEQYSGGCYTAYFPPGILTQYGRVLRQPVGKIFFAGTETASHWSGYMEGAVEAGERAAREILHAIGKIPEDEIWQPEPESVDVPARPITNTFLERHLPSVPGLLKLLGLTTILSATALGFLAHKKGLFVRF
protocol.text: biochemical
Format: biochemical
assay.context: […]; rat liver MAO, in vitro; average of at least 3 independent experiments; read-out: PE IC50
reported.endpoint: IC50

C#CCN(C)C(C)C.Cl [Example 2-PrMP, hydrochloride] | 20 µM

Let us examine a further case.
## Input Which measured IC50 value corresponds to C#CCN(C)CCCCCl.Cl [Cl-1-BuMP] ?
## Output 10 µM
